# System Tested: L-type calcium channel, the α1C subunit (Homo sapiens, UniProt Q13936)
# Construct: expressed in transfected cells
# Sequence (Q13936 whole entry): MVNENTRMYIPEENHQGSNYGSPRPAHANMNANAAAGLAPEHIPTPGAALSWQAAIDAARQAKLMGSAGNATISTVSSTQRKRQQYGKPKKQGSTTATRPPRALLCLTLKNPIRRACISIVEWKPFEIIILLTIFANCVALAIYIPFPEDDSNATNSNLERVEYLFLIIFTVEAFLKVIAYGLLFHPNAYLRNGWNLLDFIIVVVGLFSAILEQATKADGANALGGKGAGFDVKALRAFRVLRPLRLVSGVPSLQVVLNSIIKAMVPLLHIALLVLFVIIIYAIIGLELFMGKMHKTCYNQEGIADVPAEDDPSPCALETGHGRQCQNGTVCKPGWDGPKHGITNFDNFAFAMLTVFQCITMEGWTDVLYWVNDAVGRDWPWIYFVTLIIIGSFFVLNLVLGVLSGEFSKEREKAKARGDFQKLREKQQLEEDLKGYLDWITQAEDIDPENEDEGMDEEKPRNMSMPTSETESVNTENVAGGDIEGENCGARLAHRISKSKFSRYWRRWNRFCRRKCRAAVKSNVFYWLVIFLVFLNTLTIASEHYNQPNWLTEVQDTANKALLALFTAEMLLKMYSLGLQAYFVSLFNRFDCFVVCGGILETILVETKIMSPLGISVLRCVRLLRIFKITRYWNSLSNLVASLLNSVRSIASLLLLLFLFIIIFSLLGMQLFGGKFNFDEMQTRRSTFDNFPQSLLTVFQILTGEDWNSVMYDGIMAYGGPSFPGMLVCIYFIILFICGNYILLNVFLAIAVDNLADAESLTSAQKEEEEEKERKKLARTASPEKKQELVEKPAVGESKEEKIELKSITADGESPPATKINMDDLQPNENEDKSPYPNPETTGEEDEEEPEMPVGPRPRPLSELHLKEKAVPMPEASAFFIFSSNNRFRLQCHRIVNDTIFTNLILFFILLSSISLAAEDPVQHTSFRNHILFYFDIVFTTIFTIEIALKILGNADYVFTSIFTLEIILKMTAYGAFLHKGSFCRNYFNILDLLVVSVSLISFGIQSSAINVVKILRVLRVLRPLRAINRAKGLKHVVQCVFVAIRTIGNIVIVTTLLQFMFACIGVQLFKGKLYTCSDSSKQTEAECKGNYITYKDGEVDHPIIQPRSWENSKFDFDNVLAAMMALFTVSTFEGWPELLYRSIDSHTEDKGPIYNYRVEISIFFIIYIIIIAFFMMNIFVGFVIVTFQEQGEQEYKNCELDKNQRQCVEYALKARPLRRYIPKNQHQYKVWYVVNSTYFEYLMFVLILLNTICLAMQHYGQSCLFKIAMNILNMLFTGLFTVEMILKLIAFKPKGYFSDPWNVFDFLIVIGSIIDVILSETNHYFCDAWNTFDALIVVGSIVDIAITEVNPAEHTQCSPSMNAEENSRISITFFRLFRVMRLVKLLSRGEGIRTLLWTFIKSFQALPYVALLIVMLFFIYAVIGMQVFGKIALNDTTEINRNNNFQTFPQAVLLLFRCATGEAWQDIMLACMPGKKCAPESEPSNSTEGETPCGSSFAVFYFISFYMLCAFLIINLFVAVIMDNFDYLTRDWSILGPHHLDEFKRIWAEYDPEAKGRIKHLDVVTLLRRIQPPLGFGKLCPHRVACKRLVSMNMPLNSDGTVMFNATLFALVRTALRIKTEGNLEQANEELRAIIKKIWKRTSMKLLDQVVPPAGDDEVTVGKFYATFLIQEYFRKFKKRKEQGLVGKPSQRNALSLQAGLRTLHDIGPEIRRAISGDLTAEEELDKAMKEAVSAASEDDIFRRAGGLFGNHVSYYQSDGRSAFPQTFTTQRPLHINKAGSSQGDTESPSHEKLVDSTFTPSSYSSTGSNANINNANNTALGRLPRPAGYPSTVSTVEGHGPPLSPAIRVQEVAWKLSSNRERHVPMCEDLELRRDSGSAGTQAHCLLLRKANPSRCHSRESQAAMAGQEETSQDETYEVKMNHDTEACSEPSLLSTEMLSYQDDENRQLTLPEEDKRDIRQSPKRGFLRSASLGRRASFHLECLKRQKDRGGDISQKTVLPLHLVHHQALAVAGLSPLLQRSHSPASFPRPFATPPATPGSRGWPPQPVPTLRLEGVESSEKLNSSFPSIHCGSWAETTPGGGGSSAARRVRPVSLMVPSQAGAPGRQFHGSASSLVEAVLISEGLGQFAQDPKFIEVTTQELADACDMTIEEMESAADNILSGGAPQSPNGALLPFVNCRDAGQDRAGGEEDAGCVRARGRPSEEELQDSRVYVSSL
# Sequence (P54289 25-946 partner limits assumed): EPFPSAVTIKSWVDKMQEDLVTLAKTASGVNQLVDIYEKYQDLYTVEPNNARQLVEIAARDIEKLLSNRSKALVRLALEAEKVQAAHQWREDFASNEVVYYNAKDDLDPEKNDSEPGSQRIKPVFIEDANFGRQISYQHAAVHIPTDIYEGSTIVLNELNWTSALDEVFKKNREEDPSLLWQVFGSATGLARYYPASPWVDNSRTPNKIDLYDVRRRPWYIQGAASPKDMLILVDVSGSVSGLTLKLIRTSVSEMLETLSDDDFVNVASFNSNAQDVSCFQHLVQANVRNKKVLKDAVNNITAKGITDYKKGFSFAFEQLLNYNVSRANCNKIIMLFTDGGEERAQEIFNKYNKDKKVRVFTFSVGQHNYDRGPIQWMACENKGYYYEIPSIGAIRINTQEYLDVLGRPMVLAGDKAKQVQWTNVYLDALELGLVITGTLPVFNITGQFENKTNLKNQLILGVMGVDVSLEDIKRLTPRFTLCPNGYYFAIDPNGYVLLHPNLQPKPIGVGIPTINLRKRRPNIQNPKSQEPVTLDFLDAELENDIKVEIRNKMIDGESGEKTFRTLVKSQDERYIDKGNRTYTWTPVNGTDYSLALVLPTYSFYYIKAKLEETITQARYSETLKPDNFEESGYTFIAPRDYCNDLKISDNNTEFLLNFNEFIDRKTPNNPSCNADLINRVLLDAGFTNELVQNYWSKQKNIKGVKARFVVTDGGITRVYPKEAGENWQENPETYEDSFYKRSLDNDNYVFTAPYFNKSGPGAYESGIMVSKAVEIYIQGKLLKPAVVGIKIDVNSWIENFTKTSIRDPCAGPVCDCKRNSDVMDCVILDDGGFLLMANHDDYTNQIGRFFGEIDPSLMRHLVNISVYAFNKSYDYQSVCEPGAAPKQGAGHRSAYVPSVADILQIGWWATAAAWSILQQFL
# Sequence (P54289 947-1103 partner limits assumed): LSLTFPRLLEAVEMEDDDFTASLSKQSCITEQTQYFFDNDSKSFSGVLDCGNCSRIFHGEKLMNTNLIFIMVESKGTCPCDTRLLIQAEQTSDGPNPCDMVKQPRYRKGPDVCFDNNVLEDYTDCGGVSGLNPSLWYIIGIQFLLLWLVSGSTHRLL
# Sequence (Q08289 whole entry partner): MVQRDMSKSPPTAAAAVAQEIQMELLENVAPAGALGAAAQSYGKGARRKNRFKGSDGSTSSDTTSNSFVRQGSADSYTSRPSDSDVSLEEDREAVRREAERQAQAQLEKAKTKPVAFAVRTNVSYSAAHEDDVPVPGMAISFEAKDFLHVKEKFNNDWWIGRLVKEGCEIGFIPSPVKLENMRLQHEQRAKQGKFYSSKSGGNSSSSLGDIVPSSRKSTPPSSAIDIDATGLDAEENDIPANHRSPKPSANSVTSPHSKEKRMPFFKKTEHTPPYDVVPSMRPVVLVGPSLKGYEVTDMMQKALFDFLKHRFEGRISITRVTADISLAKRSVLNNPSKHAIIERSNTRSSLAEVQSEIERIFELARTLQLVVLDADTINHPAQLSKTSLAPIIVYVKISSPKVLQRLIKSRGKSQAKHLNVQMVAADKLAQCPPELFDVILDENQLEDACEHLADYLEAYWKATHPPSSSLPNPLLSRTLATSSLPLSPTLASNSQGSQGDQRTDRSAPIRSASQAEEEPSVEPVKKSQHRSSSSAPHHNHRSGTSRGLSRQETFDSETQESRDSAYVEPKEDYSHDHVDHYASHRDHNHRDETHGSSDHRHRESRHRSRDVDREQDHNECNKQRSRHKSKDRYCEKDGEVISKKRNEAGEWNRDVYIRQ
# Test Description: FLIPR assay of K+-stimulated calcium influx in C1-6-37-3 cells (HEK 293 stably transfected with L-type α1C channel and Kir 2.3)
# Assay type: cell-based
# Recorded Conditions: fluo-3 loaded cells, increasing potassium concentration (FIG. 4)
Quantity: pEC50
Please keep in mind that pEC50 is minus log10 of the molar concentration; only the number is needed.

Task: Give the measured pEC50 of `[K+]` .
Output: 1.96

Where do these numbers come from? They come from patent US20060014206A1.
